# System: MT4
# test.description: Cytotoxicity against human MT4 cells
# Format: functional
# stated.conditions: read-out: CD50 (the source's name)
value.type: CC50 (µM)
Provide only the numeric value, understood in µM.

Recorded results for 2 molecules are shown here.
# molecule, CC50 / µM
data = [
    ("COc1cc([C@H]2c3c(cc(OC)c(OC)c3OC)C[C@@H](C)[C@@H]2C)cc(OC)c1OC", 34),
    ("COc1cc([C@H]2c3c(cc4c(c3OC)OCO4)C[C@H]3CSC[C@@H]32)cc(OC)c1OC", 163),
]

Ask: Form field - read-out: CC50; system: MT4; submitted item: COc1cc([C@H]2c3c(cc(OC)c(OC)c3OC)C[C@H]3CSC[C@@H]32)cc(OC)c1OC
Reply: 58

Values from ChEMBL document CHEMBL1151291
